Exercise: for every item that follows, state its recorded EC50(µg/mL), inhibition of recombinant CD73 (CellTiter-Glo).
- testedSystem: T1, human CD73 protein (ACRO Biosystems, Cat No. CD3-H52H7) (human, UniProt P21589 27-547)
- T1 sequence: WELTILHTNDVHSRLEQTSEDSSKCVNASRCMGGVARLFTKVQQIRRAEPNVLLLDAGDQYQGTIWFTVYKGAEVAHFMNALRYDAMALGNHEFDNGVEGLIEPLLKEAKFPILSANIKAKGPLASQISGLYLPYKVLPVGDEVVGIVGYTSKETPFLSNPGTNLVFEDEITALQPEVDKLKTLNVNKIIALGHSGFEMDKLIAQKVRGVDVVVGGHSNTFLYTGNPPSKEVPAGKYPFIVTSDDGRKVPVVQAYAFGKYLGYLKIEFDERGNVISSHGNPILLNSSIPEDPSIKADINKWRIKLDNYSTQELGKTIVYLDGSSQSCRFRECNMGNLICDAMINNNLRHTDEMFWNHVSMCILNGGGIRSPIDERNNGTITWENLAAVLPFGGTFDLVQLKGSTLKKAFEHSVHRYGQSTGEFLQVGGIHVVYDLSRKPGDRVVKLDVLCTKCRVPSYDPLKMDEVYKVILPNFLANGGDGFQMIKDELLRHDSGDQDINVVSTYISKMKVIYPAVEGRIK
- assayName: cell-based or functional assay
Entry rule: numbers only, all in µg/mL.

Value of EC50(µg/mL), inhibition of recombinant CD73 (CellTiter-Glo) reported for the binder 900696 (antibody, V domains shown, Constant regions are not restated) VH: QVQLVESGGGLVKPGGSLRLSCAASGFTFSKYAMSWIRQAPGKGLEWVAEISSGGGYINYADSVKGRFTISRDNAKNSLYLQMNSLRAEDTAVYYCARAIYYYGSSYNYYAMDYWGQGTTVTVSS VL: DIQMTQSPSSLSASVGDRVTITCRASQDVGTAEAWYQQKPGKAPKLLIYWASTLQSGVPSRFSGSGSGTDFTLTISSLQPEDFATYYCQQYSSYPLTFGQGTKLEIK is 0.751

Sample 900695 (antibody, V domains shown, Constant regions are not restated) VH: QVQLVESGGGLVKPGGSLRLSCAASGFTFSKYAMSWVRQAPGKGLEWVAEISSGGGYINYADSVTGRFTISRDNAKNSLYLQMNSLRAEDTAVYYCARAIYYYGSSYNYYAMDYWGQGTTVTVSS VL: DIQMTQSPSSLSASVGDRVTITCRASQDVGTAEAWYQQKPGKAPKLLIYWASTRHTGVPSRFSGSGSGTDFTLTISSLQPEDFATYYCQQYSSYPLTFGQGTKLEIK ; EC50(µg/mL), inhibition of recombinant CD73 (CellTiter-Glo) observed: 0.746

// sample 900697 (antibody, V domains shown, Constant regions are not restated) VH: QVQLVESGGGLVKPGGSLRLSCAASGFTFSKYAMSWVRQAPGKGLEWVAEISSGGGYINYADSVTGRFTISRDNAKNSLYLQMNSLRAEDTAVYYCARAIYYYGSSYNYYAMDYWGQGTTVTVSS VL: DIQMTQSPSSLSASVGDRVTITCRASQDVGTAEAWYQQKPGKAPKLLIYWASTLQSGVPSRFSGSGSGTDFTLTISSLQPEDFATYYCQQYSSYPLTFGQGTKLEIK , its EC50(µg/mL), inhibition of recombinant CD73 (CellTiter-Glo) was 0.585
